# Tested System: Gag-Pol polyprotein (Human immunodeficiency virus type 1 group M subtype B (isolate HXB2))
# Test: RNase H inhibition, HIV 1 Gag Pol polyprotein, FRET biochemical assay, screening (AID 372)
# Cond: HIV-1 RT RNase H, FRET RNA/DNA substrate fluorescence; at 10 µM; hits give high values
Screen size: about 100,000 compounds; about 770 (0.77%) were called active. This excerpt belongs to a sample that is enriched for actives.
Lab note: class by inhibition, see bin 1 (below 6%), bin 2 (6% to below 20%), bin 3 (20% or more)

Request: Which class does Cc1ccccc1N1C(=O)C2C3c4ccccc4C(C)(c4ccccc43)C2C1=O (centres undefined) fall in?
Response: bin 1

Request: Which class does "COc1ccc(Cl)cc1NC(=O)C(=O)NCc1ccc(C)cc1" fall in?
Response: bin 3

Request: Which class does "Cc1ccc(NCCCC(=O)N/N=C/c2cccs2)cc1" fall in?
Response: bin 2

Request: Which class does "O=C(NC(=S)Nc1ccc(-c2nc3cc(Cl)ccc3o2)cc1)c1ccc(F)cc1" fall in?
Response: bin 2

Request: Which class does "CCN1C(=O)/C(=C2\SC(=S)N(CC(=O)O)C2=O)c2ccccc21" fall in?
Response: bin 2

Request: Which class does "O=C(/C=C/c1ccc(Cl)cc1)NC(=S)Nc1ccc(NC(=O)c2cccs2)cc1" fall in?
Response: bin 3

Request: Which class does "CCN1C(=O)/C(=C2\SC(=S)N(c3ccccc3)C2=O)c2ccccc21" fall in?
Response: bin 1

Request: Which class does "Cc1ccc(NC(=S)NC(=O)/C=C/c2ccccc2)cc1C" fall in?
Response: bin 2

Request: Which class does "Cc1ccc(NC(=S)NC(=O)/C=C/c2ccccc2)cc1Cl" fall in?
Response: bin 3

Request: Which class does "O=C(Nc1ccc(Cl)cc1)c1cccc(N2C(=O)c3cccnc3C2=O)c1" fall in?
Response: bin 1

Request: Which class does "COc1ccc(C)cc1NC(=O)C(=O)NCc1ccc(C)cc1" fall in?
Response: bin 1

Request: Which class does "CCn1c(NC(=O)c2ccc(Cl)cc2)nc2ccccc21" fall in?
Response: bin 1

Request: Which class does "O=C(NC(=S)Nc1ccc2oc(-c3ccc(Cl)cc3)nc2c1)c1ccc(F)cc1" fall in?
Response: bin 3

Request: Which class does "O=C(Nc1ccccc1-c1nc2ccccc2[nH]1)c1ccc([N+](=O)[O-])cc1" fall in?
Response: bin 3

Request: Which class does "O=C(NC(=S)Nc1ccc2oc(-c3cc(Cl)ccc3Cl)nc2c1)c1ccc(F)cc1" fall in?
Response: bin 2

Request: Which class does "C=CCn1c(-c2nonc2NC(C)=O)nc2ccccc21" fall in?
Response: bin 3

Request: Which class does CC(c1ccccc1)N1C(=O)/C(=C/c2cccc([N+](=O)[O-])c2)SC1=S (centres undefined) fall in?
Response: bin 2

Request: Which class does COc1ccc(C(NC(=O)C(C)C)c2ccc3cccnc3c2O)cc1OC (centres undefined) fall in?
Response: bin 1

Request: Which class does COc1ccc(C2/C(=C(/O)c3ccc(Cl)cc3)C(=O)C(=O)N2CCCC(=O)O)cc1 (centres undefined) fall in?
Response: bin 1

Request: Which class does "O=C(Nc1ccc(Cl)cc1)c1ccc(Br)o1" fall in?
Response: bin 2

Request: Which class does "O=C(NC(=S)Nc1ccc2oc(-c3cccc(Cl)c3)nc2c1)c1ccc(F)cc1" fall in?
Response: bin 2

Request: Which class does "Nc1[nH]n(-c2ccccc2)c(=O)c1N=Nc1ccc(Cl)cc1" fall in?
Response: bin 2

Request: Which class does "O=C(COc1ccc2ccccc2c1)N/N=C/c1ccccc1Br" fall in?
Response: bin 2

Request: Which class does "COc1cc(/C=N\NC(=O)CSc2nc3ccccc3o2)ccc1O" fall in?
Response: bin 3

Request: Which class does "Cc1cc(OCc2nc(-c3ccc(Cl)cc3Cl)no2)ccc1Br" fall in?
Response: bin 2

Request: Which class does CC1=C(C(=O)OCCc2ccccc2)C(c2ccc(Cl)c([N+](=O)[O-])c2)C2=C(CCCC2=O)N1 (centres undefined) fall in?
Response: bin 1

Request: Which class does "CS/C(N)=N\N=C\c1cc([N+](=O)[O-])ccc1O" fall in?
Response: bin 2

Request: Which class does "O=C(Nc1nnc(SCc2ccccc2)s1)c1cccc2ccccc12" fall in?
Response: bin 1

====

# Tested System: Gag-Pol polyprotein (Human immunodeficiency virus type 1 group M subtype B (isolate HXB2))
# Test: RNase H inhibition, HIV 1 Gag Pol polyprotein, FRET biochemical assay, screening (AID 372)
# Cond: HIV-1 RT RNase H, FRET RNA/DNA substrate fluorescence; at 10 µM; hits give high values
In all, about 100,000 compounds went through this assay and about 770 (0.77%) were called active. This is one part of a sample in which actives are shown more often than they occur.
Value Kind: inhibition (%)
# unit: % | format: bare number

Request: Fill in the blank: the reported inhibition of "O=C1c2cccc3ccc(Cl)c(c23)C(=O)N1O" is ____.
Response: 90

Request: Fill in the blank: the reported inhibition of "Cc1ccc(/C=C2\SC(=S)N(CCc3ccccc3)C2=O)cc1" is ____.
Response: 3

Request: Fill in the blank: the reported inhibition of "Cc1nnc(C)n1/N=C/c1ccc(Cl)cc1" is ____.
Response: 2

Request: Fill in the blank: the reported inhibition of "COc1cc(/C=C2\SC(=S)NC2=O)ccc1OS(=O)(=O)c1ccc(C)cc1" is ____.
Response: 24

Request: Fill in the blank: the reported inhibition of "O=C1c2cccc3c([N+](=O)[O-])ccc(c23)N1c1ccccc1" is ____.
Response: 56

Request: Fill in the blank: the reported inhibition of CCOCCOC(=O)C1=C(C)N(CC)C(=O)NC1c1ccc([N+](=O)[O-])cc1 (centres undefined) is ____.
Response: 0

Request: Fill in the blank: the reported inhibition of "COc1ccc(N2C(=O)c3cccc4c([N+](=O)[O-])ccc(c34)C2=O)cc1" is ____.
Response: 16

Request: Fill in the blank: the reported inhibition of "Cc1ccc(/C(N)=N/OC(=O)c2ccc(C)cc2Cl)cc1" is ____.
Response: 10

Request: Fill in the blank: the reported inhibition of "CCOc1ccc(/C=N/NC(=O)c2cc(-c3ccc4ccccc4c3)n[nH]2)cc1" is ____.
Response: 14

Request: Fill in the blank: the reported inhibition of "O=C(Nc1ccc(F)cc1F)c1sc2ccccc2c1Cl" is ____.
Response: 16

Request: Fill in the blank: the reported inhibition of "O=C1c2cccc3ccc(Cl)c(c23)C(=O)N1Oc1ccc([N+](=O)[O-])cc1[N+](=O)[O-]" is ____.
Response: 3

Request: Fill in the blank: the reported inhibition of "COc1ccc(OC)c(/C=C2\C(=O)NC(=S)N(c3ccc(Br)cc3)C2=O)c1" is ____.
Response: 12

Request: Fill in the blank: the reported inhibition of COc1ccccc1S(=O)(=O)CC(SC#N)c1ccccc1 (centres undefined) is ____.
Response: 4

Request: Fill in the blank: the reported inhibition of "O=C(Nc1ccc(NC(=O)c2ccc(Cl)cc2Cl)c(Cl)c1)c1ccccc1" is ____.
Response: 3

Request: Fill in the blank: the reported inhibition of "CCN(CC)c1ccc(/C=C2\C(=O)N(c3nc(-c4ccc(Cl)cc4)cs3)N=C2c2ccccc2)cc1" is ____.
Response: 8

Request: Fill in the blank: the reported inhibition of "Cc1ccc(OCCOC(=O)Nc2ccc(Cl)c(Cl)c2)cc1" is ____.
Response: 46

Request: Fill in the blank: the reported inhibition of "COc1cccc(OCCOC(=O)Nc2ccc(Cl)c(Cl)c2)c1" is ____.
Response: 50

Request: Fill in the blank: the reported inhibition of CC(CCC(=O)Nc1nc2ccccc2s1)CC(=O)Nc1nc2ccccc2s1 (centres undefined) is ____.
Response: 15

Request: Fill in the blank: the reported inhibition of "Cc1ccccc1OCCOC(=O)Nc1ccc(Cl)c(Cl)c1" is ____.
Response: 51

====

Exercise: for every item that follows, state its recorded inhibition.
# Tested System: Gag-Pol polyprotein (Human immunodeficiency virus type 1 group M subtype B (isolate HXB2))
# Test: RNase H inhibition, HIV 1 Gag Pol polyprotein, FRET biochemical assay, screening (AID 372)
# Cond: HIV-1 RT RNase H, FRET RNA/DNA substrate fluorescence; at 10 µM; hits give high values
Screen size: about 100,000 compounds; about 770 (0.77%) were called active. Only a selection was taken, and actives are over-represented in it overall.
# unit: % | format: bare number

Request: Return inhibition measured with Gag-Pol polyprotein (Human immunodeficiency virus type 1 group M subtype B (isolate HXB2)) given this molecule: "O=C1C(Cl)=C(Cl)C(=O)N1c1cccc(C(F)(F)F)c1"
Response: 6

Request: Return inhibition measured with Gag-Pol polyprotein (Human immunodeficiency virus type 1 group M subtype B (isolate HXB2)) given this molecule: CCOC(=O)c1sc(NC(=O)C2CC3CCC2C3)c(C(=O)OCC)c1C (centres undefined)
Response: 10

Request: Return inhibition measured with Gag-Pol polyprotein (Human immunodeficiency virus type 1 group M subtype B (isolate HXB2)) given this molecule: "Cc1cccnc1NS(=O)(=O)c1cc(Cl)ccc1Cl"
Response: 10

Request: Return inhibition measured with Gag-Pol polyprotein (Human immunodeficiency virus type 1 group M subtype B (isolate HXB2)) given this molecule: O=C1c2ccccc2NC(c2ccccc2O)N1c1ccc(Cl)cc1 (centres undefined)
Response: 12

Request: Return inhibition measured with Gag-Pol polyprotein (Human immunodeficiency virus type 1 group M subtype B (isolate HXB2)) given this molecule: "COc1ccc(-n2nnnc2C(=Cc2ccc(N(C)C)cc2)c2nnnn2-c2ccc(OC)cc2)cc1"
Response: 9

Request: Return inhibition measured with Gag-Pol polyprotein (Human immunodeficiency virus type 1 group M subtype B (isolate HXB2)) given this molecule: "COc1cc([N+](=O)[O-])cc(/C=C2\C(=O)NC(=O)N(c3ccc(Cl)cc3)C2=O)c1O"
Response: 7

Request: Return inhibition measured with Gag-Pol polyprotein (Human immunodeficiency virus type 1 group M subtype B (isolate HXB2)) given this molecule: "CC(=O)c1cccc(NC(=O)/C(=C/c2ccc(Br)cc2)NC(=O)c2ccccc2)c1"
Response: 6

Request: Return inhibition measured with Gag-Pol polyprotein (Human immunodeficiency virus type 1 group M subtype B (isolate HXB2)) given this molecule: "Cn1c(SC/C=C/c2ccccc2)nc2sc3c(c2c1=O)CCC3"
Response: 2

Request: Return inhibition measured with Gag-Pol polyprotein (Human immunodeficiency virus type 1 group M subtype B (isolate HXB2)) given this molecule: "COc1ccc(C(N)=O)cc1NC(=O)c1cccs1"
Response: 0

Request: Return inhibition measured with Gag-Pol polyprotein (Human immunodeficiency virus type 1 group M subtype B (isolate HXB2)) given this molecule: CC(C)(C)c1cc(C(c2ccccc2O)N2CCOCC2)cc(C(C)(C)C)c1O (centres undefined)
Response: 22

Request: Return inhibition measured with Gag-Pol polyprotein (Human immunodeficiency virus type 1 group M subtype B (isolate HXB2)) given this molecule: "O=c1/c(=C/c2ccc(-c3ccccc3Cl)o2)sc2nc3ccccc3n12"
Response: 3

Request: Return inhibition measured with Gag-Pol polyprotein (Human immunodeficiency virus type 1 group M subtype B (isolate HXB2)) given this molecule: "Cc1sc(NC(=O)C2CCCCC2)c(C(N)=O)c1C"
Response: 7

Request: Return inhibition measured with Gag-Pol polyprotein (Human immunodeficiency virus type 1 group M subtype B (isolate HXB2)) given this molecule: "CCOC(=O)c1c(C)oc2c(F)c(F)c(F)c(F)c12"
Response: 22

Request: Return inhibition measured with Gag-Pol polyprotein (Human immunodeficiency virus type 1 group M subtype B (isolate HXB2)) given this molecule: "COC(=O)c1c(NC(=O)c2ccco2)sc(C)c1C"
Response: 15

Request: Return inhibition measured with Gag-Pol polyprotein (Human immunodeficiency virus type 1 group M subtype B (isolate HXB2)) given this molecule: "Cc1sc(NC(=O)c2ccco2)c(C#N)c1C"
Response: 7

Request: Return inhibition measured with Gag-Pol polyprotein (Human immunodeficiency virus type 1 group M subtype B (isolate HXB2)) given this molecule: "O=C1C=CC(=O)N1c1cccc(Cl)c1"
Response: 19

Request: Return inhibition measured with Gag-Pol polyprotein (Human immunodeficiency virus type 1 group M subtype B (isolate HXB2)) given this molecule: "CC(C)(Cc1ccc(O)cc1)NC(=O)Cc1ccccc1"
Response: 6

Request: Return inhibition measured with Gag-Pol polyprotein (Human immunodeficiency virus type 1 group M subtype B (isolate HXB2)) given this molecule: "Cc1cccc(OCC(=O)Nc2cccc(-c3nc4ccccc4s3)c2)c1"
Response: 9

Request: Return inhibition measured with Gag-Pol polyprotein (Human immunodeficiency virus type 1 group M subtype B (isolate HXB2)) given this molecule: "COc1ccc(N(CC(=O)N2CCCCC2)S(=O)(=O)c2ccccc2[N+](=O)[O-])c(OC)c1"
Response: 2

src = PubChem BioAssay AID372
